Origin of values: the supplement of paper PMC12645437

Molecular target: T1, CRBN, Q96SW2;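 also: pooled lentiviral library of zinc finger degron-EGFP fusions in mCherry-positive Jurkat cells, FACS-sorted after compound exposure, with degron abundance counted by next-generation sequencing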
T1 chain: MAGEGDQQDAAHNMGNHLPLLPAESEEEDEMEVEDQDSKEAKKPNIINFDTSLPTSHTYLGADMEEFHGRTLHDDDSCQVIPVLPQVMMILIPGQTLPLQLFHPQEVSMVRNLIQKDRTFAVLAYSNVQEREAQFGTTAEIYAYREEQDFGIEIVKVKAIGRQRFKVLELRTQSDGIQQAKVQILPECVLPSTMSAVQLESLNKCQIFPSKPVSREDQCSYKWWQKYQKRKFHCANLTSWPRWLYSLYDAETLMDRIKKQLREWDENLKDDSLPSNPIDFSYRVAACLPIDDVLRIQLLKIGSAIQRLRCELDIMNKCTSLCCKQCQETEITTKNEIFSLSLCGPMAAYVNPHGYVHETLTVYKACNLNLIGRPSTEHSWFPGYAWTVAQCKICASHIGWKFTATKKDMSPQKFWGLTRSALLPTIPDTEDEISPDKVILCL
Test: log2 fold change of degron read counts, EGFP-low vs EGFP+ sorted cells (limma voom), compound-induced degradation; higher = more compound-induced degradation of the degron-EGFP fusion; degrons are variants of IKZF1/3 zinc finger 2; compound dose not given here
Conditions: Jurkat; 18 h; compound: compound 22 (5-morpholino-thalidomide)
The full ranking holds about 8,300 sequences; the median of “log2 fold change of degron read counts, EGFP-low vs EGFP+ sorted cells (limma voom), compound-induced degradation” is about -1.1, and the highest 2% start at about 3.2. Only a selection was taken, and the highest values are over-represented in it overall.
Entries and their log2 fold change of degron read counts values follow.
measureName: log2 fold change of degron read counts

FCCPICGAAFTQKGNLLRHIKL [46F_47C_49P_50I_52G_53A_54A_55F_67L_, Q9UKT9]	2.84
FSCEICGAVFTQKGNLLRHIKL [46F_47S_49E_50I_52G_53A_54V_55F_67L_, Q9UKT9]	1.89
FYCPICGAGFTQKGNLLRHIKL [46F_47Y_49P_50I_52G_53A_54G_55F_67L_, Q9UKT9]	2.02
FKCPICGAGFTQKGNLLRHIKL [46F_47K_49P_50I_52G_53A_54G_55F_67L_, Q9UKT9]	-0.359
FWCEICGAVFTQKGNLLRHIKL [46F_47W_49E_50I_52G_53A_54V_55F_67L_, Q9UKT9]	3.51
FTCPICGAAFTQKGNLLRHIKL [46F_47T_49P_50I_52G_53A_54A_55F_67L_, Q9UKT9]	2.97
FSCPICGADFTQKGNLLRHIKL [46F_47S_49P_50I_52G_53A_54D_55F_67L_, Q9UKT9]	0.182
FHCEICGAVFTQKGNLLRHIKL [46F_47H_49E_50I_52G_53A_54V_55F_67L_, Q9UKT9]	1.65
FACEICGAVFTQKGNLLRHIKL [46F_47A_49E_50I_52G_53A_54V_55F_67L_, Q9UKT9]	2.39
FQCDVCGACFTQKGNLLRHIKL [46F_47Q_49D_50V_52G_53A_54C_55F_67L_, Q9UKT9]	1.47
FGCPICGAMFTQKGNLLRHIKL [46F_47G_49P_50I_52G_53A_54M_55F_67L_, Q9UKT9]	2.19
